Assay: Drug concentration in NMRI mouse brain at 10 mg/kg, ip measured after 1 hr by HPLC-MS/MS analysis
Assay type: ADME, organism-based
Details: read-out: Ct
reportedEndpoint: concentration at 1 h (ng/g)

In [3]: df
Out[3]:
                    compoundstructurestring  observedresult
0  Cn1ccc2cc(CNC(=O)N3CC4(CC(=O)c5ccc(F)cc5O4)C3)ccc21             248

(a) O=C(NCc1ccc2[nH]ccc2c1)N1CC(COc2ccc(C(F)(F)F)c(F)c2)C1
(b) Cn1ccc2cc(CNC(=O)N3CC(COc4ccc(C(F)(F)F)cc4)C3)cnc21
Query block: Could you check which of a and b has a smaller value for concentration at 1 h? Identify your selection by its label.
Result block: b

---

Test: Drug concentration in NMRI mouse plasma at 10 mg/kg, ip measured after 1 hr by HPLC-MS/MS analysis
Type: ADME, organism-based
reportedEndpoint: concentration at 1 h (ng/mL)

>>> df
                    compoundstructurestring      reportedendpoint  observedresult
0  Cn1ccc2cc(CNC(=O)N3CC(COc4ccc(C(F)(F)F)cc4)C3)cnc21  concentration at 1 h            2090

(P) Cn1ccc2cc(CNC(=O)N3CC4(CC(=O)c5ccc(F)cc5O4)C3)ccc21
(Q) O=C(NCc1ccc2[nH]ccc2c1)N1CC(COc2ccc(C(F)(F)F)c(F)c2)C1
Query block: Lower value for measured concentration at 1 h? Options: P , Q Your answer should be the label attached to the chosen record.
Result block: P

---

Test: Ratio of drug concentration in brain to plasma in NMRI mouse plasma at 3 mg/kg, ip measured after 1 hr by HPLC-MS/MS analysis
Assay type: ADME, organism-based
reportedEndpoint: Kp at 1 h

In [3]: df
Out[3]:
                    compoundstructurestring  reportedendpoint  observedresult
0  Cn1ccc2cc(CNC(=O)N3CC4(CC(=O)c5ccc(F)cc5O4)C3)ccc21         Kp at 1 h             0.3

(a) Cn1ccc2cc(CNC(=O)N3CC(COc4ccc(C(F)(F)F)cc4)C3)cnc21
(b) O=C(NCc1ccc2[nH]ccc2c1)N1CC(COc2ccc(C(F)(F)F)c(F)c2)C1
Query block: // compare: a vs b , metric Kp at 1 h, want the smaller Your answer should be the label of the entry you select.
Result block: a

---

Assay: Apparent permeability in human Caco2 cells at 10 uM
Assay type: ADME, cell-based
Settings: Caco-2
reportedEndpoint: Papp at 10 µM (×10⁻⁶ cm/s)
Report the figure in ×10⁻⁶ cm/s without appending any unit label.

Query block: Please look at this compound and report its Papp at 10 µM: "O=C(NCc1ccc2[nH]ccc2c1)N1CC(COc2ccc(C(F)(F)F)c(F)c2)C1"
Result block: 63

---

Experiment: Drug concentration in NMRI mouse plasma at 1 mg/kg, ip measured after 1 hr by HPLC-MS/MS analysis
Format: ADME, organism-based
reportedEndpoint: concentration at 1 h (µg/mL)

>>> print(df.to_string())
                    compoundstructurestring  unittext  observedresult
0  O=C(NCc1ccc2[nH]ccc2c1)N1CC(COc2ccc(C(F)(F)F)c(F)c2)C1     µg/mL           0.167

(I) Cn1ccc2cc(CNC(=O)N3CC(COc4ccc(C(F)(F)F)cc4)C3)cnc21
(II) Cn1ccc2cc(CNC(=O)N3CC4(CC(=O)c5ccc(F)cc5O4)C3)ccc21
Query block: Lab note: record which item had the higher concentration at 1 h, I or II . Give the label of your selection.
Result block: I
(I: 0.179 µg/mL, II: 0.107 µg/mL)

---

Experiment: Drug concentration in NMRI mouse brain at 3 mg/kg, ip measured after 1 hr by HPLC-MS/MS analysis
Type: ADME, organism-based
Conditions: read-out: Ct
reportedEndpoint: concentration at 1 h (ng/g)

(A) Cn1ccc2cc(CNC(=O)N3CC4(CC(=O)c5ccc(F)cc5O4)C3)ccc21
(B) O=C(NCc1ccc2[nH]ccc2c1)N1CC(COc2ccc(C(F)(F)F)c(F)c2)C1
(C) Cn1ccc2cc(CNC(=O)N3CC(COc4ccc(C(F)(F)F)cc4)C3)cnc21
Query block: Provide the items ranked by increasing concentration at 1 h. List the labels according to the requested ordering.
Result block: A, C, B
(A: 78.5 ng/g, C: 174 ng/g, B: 678 ng/g)

---

Assay: Metabolic stability in NMRI mouse liver microsome assessed as intrinsic clearance measured per mg of protein incubated for 40 mins
Format: ADME
Details: liver microsomes, read-out: CLH
reportedEndpoint: microsomal CLint (µL/min/mg)

(P) Cc1cc2cc(CNC(=O)N3CC4(CC(=O)c5ccccc5O4)C3)ccc2[nH]1
(Q) O=C(NCc1ccc2[nH]cc(Cl)c2c1)N1CC(COc2ccc(C(F)(F)F)cc2)C1
(R) O=C1CC2(CN(C(=O)NCc3ccc4[nH]c(Cl)cc4c3)C2)Oc2ccccc21
(S) Cc1cc2cc(CNC(=O)N3CC4(CC(=O)c5ccc(F)cc5O4)C3)ccc2[nH]1
Query block: In a descending ranking, list each entry from above by its microsomal CLint, from the largest value down to the smallest. Response format: the labels, sorted as the prompt asks.
Result block: R, P, S, Q
(R: 178 µL/min/mg, P: 100 µL/min/mg, S: 64 µL/min/mg, Q: 43 µL/min/mg)

(P) O=C(NCc1ccc2[nH]ccc2c1)N1CC(COc2ccc(C(F)(F)F)cn2)C1
(Q) Cn1ccc2cc(CNC(=O)N3CC(COc4ccc(C(F)(F)F)cc4)C3)cnc21
(R) Cn1ccc2cc(CNC(=O)N3CC4(CC(=O)c5ccccc5O4)C3)ccc21
Query block: Could you please order the items by microsomal CLint, going from the lowest number to the highest? To answer, write out the labels according to the requested order.
Result block: R, P, Q
(R: 52 µL/min/mg, P: 78 µL/min/mg, Q: 123 µL/min/mg)

(1) Cc1cc2cc(CNC(=O)N3CC(COc4ccc(C(F)(F)F)cc4)C3)ccc2[nH]1
(2) Cn1ccc2cc(CNC(=O)N3CC4(CC(=O)c5ccc(F)cc5O4)C3)ccc21
Query block: Just curious, which one has the larger microsomal CLint reading, 1 or 2 ? Label of pick, please.
Result block: 1
(1: 94 µL/min/mg, 2: 49 µL/min/mg)

---

Test: Kinetic solubility of compound at pH 7.4 incubated for 2 hrs by UV-HPLC analysis
Type: physicochemical
Settings: buffer, read-out: Kinetic_solubility
reportedEndpoint: solubility kinetic at 2 h (µM)

In [3]: df
Out[3]:
                    compoundstructurestring           reportedendpoint  unittext  observedresult
0  Cn1ccc2cc(CNC(=O)N3CC(COc4ccc(Cl)cc4)C3)cnc21  solubility kinetic at 2 h        µM            61.1

(A) NC(=O)c1cc2cc(CNC(=O)N3CC(COc4ccc(C(F)(F)F)cc4)C3)ccc2[nH]1
(B) Cc1[nH]c2ccc(CNC(=O)N3CC4(CC(=O)c5ccccc5O4)C3)cc2c1Cl
Query block: Between these two entries, A and B , state which has the higher solubility kinetic at 2 h. Respond with the label that goes with your answer.
Result block: B

---

Target: Neuronal acetylcholine receptor subunit alpha-7 (Homo sapiens, UniProt P36544)
Sequence (P36544 whole entry): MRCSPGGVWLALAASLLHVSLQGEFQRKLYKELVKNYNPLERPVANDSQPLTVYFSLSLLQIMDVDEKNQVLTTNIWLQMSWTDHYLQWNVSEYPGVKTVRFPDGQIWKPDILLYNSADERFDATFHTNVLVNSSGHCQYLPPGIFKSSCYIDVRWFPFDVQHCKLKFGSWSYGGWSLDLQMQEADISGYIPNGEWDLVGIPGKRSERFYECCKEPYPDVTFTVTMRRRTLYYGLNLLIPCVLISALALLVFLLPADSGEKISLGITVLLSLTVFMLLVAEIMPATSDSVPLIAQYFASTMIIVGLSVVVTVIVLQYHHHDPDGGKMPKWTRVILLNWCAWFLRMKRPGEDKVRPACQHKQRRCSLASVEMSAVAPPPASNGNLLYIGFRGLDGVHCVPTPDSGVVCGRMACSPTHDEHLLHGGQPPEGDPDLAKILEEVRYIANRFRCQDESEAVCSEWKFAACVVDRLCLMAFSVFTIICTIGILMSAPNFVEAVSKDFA
Test: Positive allosteric modulator activity at human alpha7 nAChR expressed in Flp-In HEK293 cells assessed as increase in calcium influx incubated for 10 mins by fluorescence based analysis
Assay type: cell-based
pEC50: −log10 of the molar value.
reportedEndpoint: pEC50

                    compoundstructurestring                             targetofassay  reportedendpoint  observedresult
0  Cn1cc(F)c2cc(CNC(=O)N3CC(COc4ccc(C(F)(F)F)nc4)C3)ccc21  Neuronal acetylcholine receptor subunit alpha-7 (Homo sapiens, UniProt P36544)             pEC50            7.26

(P) Cn1cc(Cl)c2cc(CNC(=O)N3CC(COc4ccc(C(F)(F)F)cc4)C3)ccc21
(Q) Cc1[nH]c2ccc(CNC(=O)N3CC4(CC(=O)c5ccccc5O4)C3)cc2c1Cl
Query block: Record comparison, field pEC50: mark the lower of P and Q . Which one? Tell me its label.
Result block: Q
(Q: 6.34, P: 6.70)

---

Assay: Metabolic stability in human liver microsome assessed as intrinsic clearance measured per mg of protein incubated for 40 mins
Format: ADME
Conditions: liver microsomes, read-out: CLH
reportedEndpoint: microsomal CLint (µL/min/mg)

Some solved cases for reference:
                    compoundstructurestring  reportedendpoint   unittext  observedresult
0  Cc1cc2cc(CNC(=O)N3CC(COc4ccc(C(F)(F)F)cc4)C3)cnc2n1C  microsomal CLint  µL/min/mg              54
1  Cn1ccc2cc(CNC(=O)N3CC4(CC(=O)c5ccccc5O4)C3)ccc21  microsomal CLint  µL/min/mg              24
2  Cn1cc(C#N)c2cc(CNC(=O)N3CC(COc4ccc(C(F)(F)F)cc4)C3)cnc21  microsomal CLint  µL/min/mg              49
3  Cc1nnc(-c2cc3cc(CNC(=O)N4CC(COc5ccc(C(F)(F)F)cc5)C4)ccc3[nH]2)o1  microsomal CLint  µL/min/mg              16

(P) Cn1ccc2cc(CNC(=O)N3CC(COc4ccc(C(F)(F)F)cc4)C3)cnc21
(Q) Cn1ccc2cc(CNC(=O)N3CC(COc4ccc(C(F)(F)F)cn4)C3)ccc21
(R) O=C(NCc1ccc2[nH]ccc2c1)N1CC(COc2ccc(C(F)(F)F)cn2)C1
(S) O=C(NCc1ccc2[nH]cc(Cl)c2c1)N1CC(COc2ccc(C(F)(F)F)cc2)C1
Query block: Sort the 4 molecules by microsomal CLint; largest first, smallest last. In plain terms: list the labels in the order you were asked to.
Result block: Q, R, S, P
